Target: T1, D1 domain of human IL-2Rγ extracellular domain expressed with a C-terminal myc-myc-hexahistidine tag (human)
T1 construct: also called human IL2Rγ domain 1
T1 chain: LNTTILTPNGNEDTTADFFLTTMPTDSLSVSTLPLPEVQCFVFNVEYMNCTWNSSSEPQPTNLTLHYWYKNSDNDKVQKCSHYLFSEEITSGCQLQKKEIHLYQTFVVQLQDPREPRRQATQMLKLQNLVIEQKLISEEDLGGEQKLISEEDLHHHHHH
Assay: SPR, mAb captured on anti-hFc, 25 C
measured.endpoint: 100 nM Ag Bound (RU)
Return type: number; implicit unit RU.

[in] Reported 100 nM Ag Bound for H4H13541P (antibody, human IgG4 S228P, kappa, V domains shown, human IgG4) VH: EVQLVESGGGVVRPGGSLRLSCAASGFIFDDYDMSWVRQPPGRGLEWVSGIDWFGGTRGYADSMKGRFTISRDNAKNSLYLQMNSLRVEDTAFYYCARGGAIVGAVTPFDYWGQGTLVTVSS VL: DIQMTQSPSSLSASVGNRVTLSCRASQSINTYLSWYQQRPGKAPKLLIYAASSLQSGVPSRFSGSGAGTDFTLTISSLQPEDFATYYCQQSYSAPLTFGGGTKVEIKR : what is it?
[out] 2

[in] What would you report for H4H12863P (antibody, human IgG4 S228P, kappa, V domains shown, human IgG4) VH: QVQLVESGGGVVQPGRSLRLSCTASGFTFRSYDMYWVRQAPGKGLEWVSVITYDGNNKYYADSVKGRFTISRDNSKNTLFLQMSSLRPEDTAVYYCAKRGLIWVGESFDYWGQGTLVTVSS VL: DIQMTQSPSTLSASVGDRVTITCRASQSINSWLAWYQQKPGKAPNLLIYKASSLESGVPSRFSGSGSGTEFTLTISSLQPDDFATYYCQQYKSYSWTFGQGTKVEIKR ?
[out] 55

[in] What would you report for H4H12886P (antibody, human IgG4 S228P, kappa, V domains shown, human IgG4) VH: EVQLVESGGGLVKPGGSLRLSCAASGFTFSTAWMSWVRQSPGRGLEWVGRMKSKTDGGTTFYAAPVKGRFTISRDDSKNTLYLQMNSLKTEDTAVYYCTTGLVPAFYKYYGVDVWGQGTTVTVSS VL: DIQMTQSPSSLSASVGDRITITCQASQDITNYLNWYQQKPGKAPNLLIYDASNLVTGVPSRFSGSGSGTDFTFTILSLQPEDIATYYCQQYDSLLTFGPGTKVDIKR ?
[out] 0

[in] What would you report for H4H12899P (antibody, human IgG4 S228P, kappa, V domains shown, human IgG4) VH: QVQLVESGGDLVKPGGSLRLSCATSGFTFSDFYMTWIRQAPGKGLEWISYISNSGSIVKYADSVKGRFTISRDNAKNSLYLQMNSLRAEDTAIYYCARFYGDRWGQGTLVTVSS VL: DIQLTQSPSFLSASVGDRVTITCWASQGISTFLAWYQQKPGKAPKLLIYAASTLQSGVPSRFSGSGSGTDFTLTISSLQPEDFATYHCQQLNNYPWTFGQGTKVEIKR ?
[out] 0

[in] What would you report for H4H12874P (antibody, human IgG4 S228P, kappa, V domains shown, human IgG4) VH: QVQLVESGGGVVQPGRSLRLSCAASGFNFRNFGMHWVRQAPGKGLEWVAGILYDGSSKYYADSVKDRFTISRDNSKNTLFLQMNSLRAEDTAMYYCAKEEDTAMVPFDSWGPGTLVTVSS VL: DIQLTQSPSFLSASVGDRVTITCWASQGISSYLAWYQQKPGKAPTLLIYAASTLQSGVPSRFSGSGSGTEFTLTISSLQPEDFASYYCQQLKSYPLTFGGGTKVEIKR ?
[out] 0
